# Experiment notes: eLogD7.4
# Type: physicochemical
# Assay conditions: pH 7.4
Metric: chromatographic logD

Provide measured chromatographic logD value, entry: O=C(O)c1cccc(N2CCc3cccc(C(=O)Nc4nc5ccccc5s4)c3C2)n1 [Compound 3]
2.85

====

# Test system: RS4;11 cells
# Experiment notes: Cellular viability assay, RS4
# Type: cell-based
# Assay conditions: Homo sapiens, RS4-11, 48 h, read-out: RS4;11 EC50
Metric: EC50

Tell us which EC50 value is on record for Cc1c(-c2ccc(N3CCc4cccc(C(=O)Nc5nc6ccccc6s5)c4C3)nc2C(=O)O)cnn1Cc1ccccc1
> 5 µM
